Target: Aurora kinase A (Homo sapiens)
Sequence (whole entry): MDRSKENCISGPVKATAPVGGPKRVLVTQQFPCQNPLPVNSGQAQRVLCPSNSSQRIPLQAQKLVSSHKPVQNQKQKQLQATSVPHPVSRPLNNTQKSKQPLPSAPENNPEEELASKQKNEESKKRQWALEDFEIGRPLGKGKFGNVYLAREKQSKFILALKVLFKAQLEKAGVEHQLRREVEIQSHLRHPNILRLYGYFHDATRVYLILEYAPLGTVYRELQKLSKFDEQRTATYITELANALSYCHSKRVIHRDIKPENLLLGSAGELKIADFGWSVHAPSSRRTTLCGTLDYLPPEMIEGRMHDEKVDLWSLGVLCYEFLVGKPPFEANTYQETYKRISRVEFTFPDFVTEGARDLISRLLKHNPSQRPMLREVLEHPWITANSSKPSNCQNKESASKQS
Settings: Compound concentration 20.0 uM, Protein concentration 2.0 uM, Result type QC Liability
Description: Thermal Shift Assay. Domain: start/stop: E122-S403
propertyName: ΔTm (°C)
Response body: numeric value in °C, unit text excluded.

*Q* Fill in: ΔTm of CN1CCN(C(=O)c2ccc(N(C)c3ncc(C(F)(F)F)c(N[C@@H]4CCC[C@@H]4C(N)=O)n3)cc2)CC1 is ___
*A* -0.13

*Q* Fill in: ΔTm of N[C@@H]1CCCN(c2c(/C=C3\SC(=O)NC3=O)cccc2-c2ccccc2)C1 is ___
*A* -0.48

*Q* Fill in: ΔTm of CS(=O)(=O)c1cc(C2(NC(=O)c3cncc4c3cnn4-c3ccc(F)cc3)CC2)ccn1 is ___
*A* 0.05

*Q* Fill in: ΔTm of O=C(NCCS(=O)(=O)c1ccc(C(F)(F)F)cn1)c1ccc(Cl)cc1 is ___
*A* -0.52

*Q* Fill in: ΔTm of CN(C)C(=O)c1cc2cnc(Nc3ccc(N4CCN(CCCCNC(=O)COc5cccc6c5C(=O)N(C5CCC(=O)NC5=O)C6=O)CC4)cn3)nc2n1C1CCCC1 (stereo not drawn) is ___
*A* 4.38

*Q* Fill in: ΔTm of CCS(=O)(=O)Nc1cccc(Oc2cc(F)cc(Nc3ccc(I)cc3F)c2NS(=O)(=O)C2CC2)c1 is ___
*A* 0.23

*Q* Fill in: ΔTm of Cc1cc(OC2CCS(=O)(=O)CC2)cc(C)c1-c1cccc(COc2ccc(CCC(=O)O)c(F)c2)c1 is ___
*A* -1.9

*Q* Fill in: ΔTm of Fc1cccc(-n2cnc3c(NCc4nc5c(F)c(F)ccc5[nH]4)nc(N4CCOCC4)nc32)c1 is ___
*A* 0.74

----------
molecular target: Cyclin-dependent kinase 2 (Homo sapiens) (UniProt P24941); details: Compound concentration 20.0 uM, Protein concentration 2.0 uM, Result type QC Liability
Description: Thermal Shift Assay. Domain: start/stop: M1-L298
propertyName: ΔTm
Write down the value, and be sure its unit follows.

*Q* Fill in: ΔTm of CCCCCCC(Sc1nc(Cl)cc(NCc2ccc(-c3ccccc3)cc2)n1)C(=O)O (centres undefined) is ___
*A* -0.83 °C

*Q* Fill in: ΔTm of NC(=O)C1CCCc2c1[nH]c1ccc(Cl)cc21 (centres undefined) is ___
*A* 0.79 °C

*Q* Fill in: ΔTm of Cn1cnc(Cn2ccc3ccc(CNCc4[nH]c5ccccc5c4[C@@H]4NC(=O)c5ccc(O)cc54)cc32)c1 is ___
*A* 0.07 °C

*Q* Fill in: ΔTm of Nc1c(CC(=O)O)cccc1C(=O)c1ccc(Br)cc1 is ___
*A* 0.36 °C

----------
target: Glycogen synthase kinase-3 beta (Homo sapiens); conditions: Compound concentration 20.0 uM, Protein concentration 2.0 uM, Result type QC Liability
Description: Thermal Shift Assay. Domain: start/stop: M26-R383
Would you mind telling me the reported ΔTm of each entry?
Response body: numeric value in °C, unit text excluded.

*Q* What value of ΔTm on Glycogen synthase kinase-3 beta (Homo sapiens) does N#CN1CC[C@H](C(=O)Nc2nc3c(s2)CN(C(=O)CN=[N+]=[N-])CC3)C1 have?
*A* -0.2

*Q* What value of ΔTm on Glycogen synthase kinase-3 beta (Homo sapiens) does CN(C1CCc2c(c3ccccc3n2CC(=O)O)C1)S(=O)(=O)c1ccc(F)cc1 (centres undefined) have?
*A* 0

*Q* What value of ΔTm on Glycogen synthase kinase-3 beta (Homo sapiens) does CN[C@@H](C)C(=O)N[C@H](C(=O)N1CCC[C@H]1C(=O)Nc1sc(-c2ncco2)nc1-c1ccccc1)C1CCCCC1 have?
*A* -0.9

*Q* What value of ΔTm on Glycogen synthase kinase-3 beta (Homo sapiens) does Cc1cccc(-c2[nH]c(CNc3ccccc3F)nc2-c2ccc3ncnn3c2)n1 have?
*A* -0.02

*Q* What value of ΔTm on Glycogen synthase kinase-3 beta (Homo sapiens) does Cn1c(Nc2c(Cl)cccc2Cl)nc2ccc3nc[nH]c(=O)c3c21 have?
*A* 1.08

*Q* What value of ΔTm on Glycogen synthase kinase-3 beta (Homo sapiens) does Cc1ccccc1Oc1cc(-n2c(=O)cc(C(F)(F)F)[nH]c2=O)c2ccccc2c1Cl have?
*A* -1.52

*Q* What value of ΔTm on Glycogen synthase kinase-3 beta (Homo sapiens) does O=C(O)c1cccc(C2=C(c3cc(Cl)ccc3OCc3ccc(F)cc3F)CCC2)n1 have?
*A* 0

*Q* What value of ΔTm on Glycogen synthase kinase-3 beta (Homo sapiens) does CN1CCN(C(=O)c2ccc(N(C)c3ncc(C(F)(F)F)c(N[C@@H]4CCC[C@@H]4C(N)=O)n3)cc2)CC1 have?
*A* 0.51

*Q* What value of ΔTm on Glycogen synthase kinase-3 beta (Homo sapiens) does Cc1cn([C@H](C)CC#N)c(=O)c2cc(Cn3nc(C(F)F)cc3Cl)nn12 have?
*A* -0.46

*Q* What value of ΔTm on Glycogen synthase kinase-3 beta (Homo sapiens) does O=C(O)/C=C/c1ccc(Cn2ccnc2)cc1 have?
*A* 0.69

*Q* What value of ΔTm on Glycogen synthase kinase-3 beta (Homo sapiens) does CCCCCNC(=O)N1CCC(CN(Cc2ccc(Cl)cc2)Cc2ccc([N+](=O)[O-])s2)C1 (centres undefined) have?
*A* -1.49

*Q* What value of ΔTm on Glycogen synthase kinase-3 beta (Homo sapiens) does N=C(N)Nc1cc(C2CCNCC2)cc(C(F)(F)F)c1 have?
*A* -0.15

*Q* What value of ΔTm on Glycogen synthase kinase-3 beta (Homo sapiens) does CCN(CC)C(=O)C1CN2CCc3cc(OC)c(OC)cc3C2CC1OC(C)=O (centres undefined) have?
*A* -1.02

*Q* What value of ΔTm on Glycogen synthase kinase-3 beta (Homo sapiens) does Cc1cc2c(-c3ccco3)cnc(N[C@@H]3CCN(C)C[C@H]3C(=O)NC3CCCCC3)c2[nH]c1=O have?
*A* -0.51

*Q* What value of ΔTm on Glycogen synthase kinase-3 beta (Homo sapiens) does CN(c1ccc(C(F)(F)F)cc1)S(=O)(=O)c1ccc(C(=O)Nc2nc(-c3ccccn3)cs2)cc1 have?
*A* 13.4

*Q* What value of ΔTm on Glycogen synthase kinase-3 beta (Homo sapiens) does O=C(O)C[C@H]1CCn2c1c(Sc1ccc(Cl)cc1)c1ccc(F)cc12 have?
*A* 0

*Q* What value of ΔTm on Glycogen synthase kinase-3 beta (Homo sapiens) does CNC(=O)COc1cc2cc(Nc3nc(N4C[C@H](C)C[C@H](C)C4)ncc3Cl)ccc2n(C)c1=O have?
*A* -0.11

*Q* What value of ΔTm on Glycogen synthase kinase-3 beta (Homo sapiens) does COC(=O)Nc1nc2c(s1)-c1c(c(-c3cccnc3)nn1-c1ccc(C3(N(C)C)CC3)cc1)CC2 have?
*A* -0.71

*Q* What value of ΔTm on Glycogen synthase kinase-3 beta (Homo sapiens) does CC(C)c1cnn2c(NCc3ccccc3)cc(NCCCCCCN)nc12 have?
*A* -0.56

*Q* What value of ΔTm on Glycogen synthase kinase-3 beta (Homo sapiens) does CN1CCC(C#N)(NC(=O)[C@@H](NC(=O)N2CCOCC2)C(C)(C)C)CC1 have?
*A* -0.75

*Q* What value of ΔTm on Glycogen synthase kinase-3 beta (Homo sapiens) does CC(C)c1nc2c(c3c1[C@H](c1ccc(C(F)(F)F)cc1)OC31CCOCC1)[C@H](O)CC(C)(C)C2 have?
*A* -1.62

*Q* What value of ΔTm on Glycogen synthase kinase-3 beta (Homo sapiens) does CCN1C(=O)c2cc(C)ccc2N(C)c2ncccc21 have?
*A* -0.36

*Q* What value of ΔTm on Glycogen synthase kinase-3 beta (Homo sapiens) does Cn1ncc(NC(=O)c2nc(-c3c(F)cccc3F)sc2N)c1N1CC[C@@H](N)[C@H](F)CC1 have?
*A* 12.4

*Q* What value of ΔTm on Glycogen synthase kinase-3 beta (Homo sapiens) does CC/C(=C(\c1ccccc1)c1ccc(OCCN(C)C)cc1)c1ccccc1 have?
*A* -1.42

*Q* What value of ΔTm on Glycogen synthase kinase-3 beta (Homo sapiens) does Cc1csc(S(=O)(=O)N(CC(C)C)c2cc3c(cc2OCc2ccc(C(=O)O)cc2)CCC3)n1 have?
*A* 0

*Q* What value of ΔTm on Glycogen synthase kinase-3 beta (Homo sapiens) does CN(C)C(=O)Cn1cc(-c2nc([C@@](C)(c3ccc(-c4cnc(N)nc4)cc3)C3CC3)no2)cn1 have?
*A* -0.36

*Q* What value of ΔTm on Glycogen synthase kinase-3 beta (Homo sapiens) does O=C1Nc2nc(-c3c(O)cccc3OCC3CC3)cc([C@@H]3CCCNC3)c2CO1 have?
*A* 1.54

*Q* What value of ΔTm on Glycogen synthase kinase-3 beta (Homo sapiens) does CNc1oc(-c2cccc3ccccc23)nc1C#N have?
*A* 0.49

*Q* What value of ΔTm on Glycogen synthase kinase-3 beta (Homo sapiens) does O=C1Nc2ccc(I)cc2/C1=C/c1cc(Br)c(O)c(Br)c1 have?
*A* -1.46

*Q* What value of ΔTm on Glycogen synthase kinase-3 beta (Homo sapiens) does Fc1ccc(Cl)cc1-c1nc(Nc2ccncc2)c2nccnc2n1 have?
*A* 0.58

*Q* What value of ΔTm on Glycogen synthase kinase-3 beta (Homo sapiens) does CC(C)(O)[C@H](F)CN1Cc2cc(NC(=O)c3cnn4cccnc34)c(N3CCOCC3)cc2C1=O have?
*A* 0.95

*Q* What value of ΔTm on Glycogen synthase kinase-3 beta (Homo sapiens) does CC(C)(C)c1cc(NC(=O)c2csc(Nc3ccccn3)n2)no1 have?
*A* 0.22

*Q* What value of ΔTm on Glycogen synthase kinase-3 beta (Homo sapiens) does CCc1c(-c2ccc3[nH]ncc3c2)cnc(N)c1-c1ccc(O)cc1 have?
*A* 1.03

*Q* What value of ΔTm on Glycogen synthase kinase-3 beta (Homo sapiens) does CCN(C(=O)CO)[C@H]1CN(/C(=N\C#N)Nc2cccc(OC(F)F)c2)N=C1c1ccc(Cl)c(Cl)c1 have?
*A* 2.8

*Q* What value of ΔTm on Glycogen synthase kinase-3 beta (Homo sapiens) does CNc1nc(Nc2ccc(C(=O)N3CCOCC3)cc2OC)ncc1Cl have?
*A* -0.95

*Q* What value of ΔTm on Glycogen synthase kinase-3 beta (Homo sapiens) does CCOc1ccc(S(=O)(=O)Nc2ccc(Cl)cc2C#Cc2cnc(C(=O)O)cc2OC)c2ncccc12 have?
*A* -1.14

*Q* What value of ΔTm on Glycogen synthase kinase-3 beta (Homo sapiens) does CC1CCN(c2ccnc(NCc3cn(C)cn3)n2)CC1 have?
*A* -0.33

*Q* What value of ΔTm on Glycogen synthase kinase-3 beta (Homo sapiens) does CCc1nc(-c2cccc(C)c2)c(-c2ccnc(NC(=O)c3ccccc3)c2)s1 have?
*A* -1.07

*Q* What value of ΔTm on Glycogen synthase kinase-3 beta (Homo sapiens) does C1=Cc2ccccc2C(=C2CCN(CCCCc3nnn[nH]3)CC2)c2ccccc21 have?
*A* 0.27
